measurement_notes: pH measurement of acidic/basic substances (2.5% liquid, pH meter)
Type: physicochemical
protocol_conditions: 50 mg substance dissolved or suspended in 1,950 μL of water (concentration: 2.5%)
observation_type: pH

[
  {
    "compound": "O=C(O)/C=C/C(=O)O",
    "pH": 2.2
  }
]

a: N[C@@H](CCC(=O)O)C(=O)O
b: O=C([O-])CC(O)(CC(=O)[O-])C(=O)[O-].[Na+].[Na+].[Na+] [SODIUM CITRATE, sodium citrate]
c: O=C([O-])CC(O)(CC(=O)[O-])C(=O)O.[Na+].[Na+] [DIBASIC SODIUM CITRATE, dibasic sodium citrate]
# input Kindly order the items shown according to pH, from the highest value down. Return value: ordered labels per request.
# output b, c, a

This collection of values is drawn from patent US9603804B2.
